The entries below pair molecules with IC50 values for Kallikrein-7 (Homo sapiens, UniProt P49862), as found in several publications.
Labelling: IC50 reported below 90 µM becomes class 1; at or above becomes class 0.

CCCCCCCCCCC/C(O)=C1/C(=O)[C@H](Cc2ccccc2)N(C(=O)OC(C)(C)C)C1=O | class 1

Challenge: Is it true that IC50 reported for Nc1nc2ccccn2c1C(=O)[C@H](Cc1ccccc1)NC(=O)Cc1ccccc1 is less than 90 µM?
Response given: class 0

Challenge: Is it true that IC50 reported for CCCCCCCCCCCCCCC/C(O)=C1/C(=O)[C@H](Cc2ccccc2)N(C(=O)OC(C)(C)C)C1=O is less than 90 µM?
Response given: class 1

Challenge: Is it true that IC50 reported for COc1ccc(C2=Nc3nc4ccccn4c3C(=O)[C@H](Cc3ccccc3)N2)cc1 is less than 90 µM?
Response given: class 1

Challenge: Is it true that IC50 reported for CCOc1cc(/C=C(/C#N)C(=O)Nc2ccc(O)cc2)ccc1O is less than 90 µM?
Response given: class 0
